# STUDY_SYSTEM: c-kit autophosphorylation (Phospho c-Kit Tyr721) in HMC 1.1 (exon 11/13) cells, V654A (Homo sapiens, UniProt P10721, V560G/V654A)
# Construct: endogenous in cells
# Sequence (P10721 26-976 V560G/V654A): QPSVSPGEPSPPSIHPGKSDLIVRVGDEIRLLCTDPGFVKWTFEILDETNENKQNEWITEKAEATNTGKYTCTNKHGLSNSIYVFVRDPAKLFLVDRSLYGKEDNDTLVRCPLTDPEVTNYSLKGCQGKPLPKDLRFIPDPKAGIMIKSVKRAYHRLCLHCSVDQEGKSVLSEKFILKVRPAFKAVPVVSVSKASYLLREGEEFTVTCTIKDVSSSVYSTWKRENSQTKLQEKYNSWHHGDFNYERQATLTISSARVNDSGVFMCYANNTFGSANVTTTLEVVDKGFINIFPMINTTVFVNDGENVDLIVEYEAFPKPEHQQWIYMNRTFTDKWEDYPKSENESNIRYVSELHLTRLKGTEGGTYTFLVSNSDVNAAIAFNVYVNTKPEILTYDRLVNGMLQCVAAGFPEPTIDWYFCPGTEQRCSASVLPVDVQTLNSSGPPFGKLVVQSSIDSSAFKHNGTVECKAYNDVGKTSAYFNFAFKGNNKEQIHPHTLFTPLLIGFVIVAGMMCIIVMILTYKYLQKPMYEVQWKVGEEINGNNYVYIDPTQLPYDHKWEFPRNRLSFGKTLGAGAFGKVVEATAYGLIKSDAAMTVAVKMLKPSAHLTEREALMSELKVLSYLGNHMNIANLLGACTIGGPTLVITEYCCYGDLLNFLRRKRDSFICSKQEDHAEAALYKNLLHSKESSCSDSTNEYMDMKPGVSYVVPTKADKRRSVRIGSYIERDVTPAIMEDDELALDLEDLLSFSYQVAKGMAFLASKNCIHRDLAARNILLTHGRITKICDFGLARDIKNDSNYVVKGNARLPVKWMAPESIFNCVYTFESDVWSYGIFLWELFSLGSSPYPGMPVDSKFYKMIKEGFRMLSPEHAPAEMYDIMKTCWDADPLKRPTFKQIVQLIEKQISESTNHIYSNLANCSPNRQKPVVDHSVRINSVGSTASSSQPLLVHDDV
# MEASUREMENT_DESCRIPTION: pKIT Meso Scale Discovery (MSD) assay, inhibition of autophosphorylation of KIT, HMC1.1_V654A
# MEASUREMENT_CONTEXT: Table 1, cell line not named for Table 1, b1056 names pKIT HMC1.1_V654A, read-out: Code (IC50 for inhibition of autophosphorylation of KIT, pKIT MSD assay)
This section presents compounds with their documented IC50 values.

| COMPOUND | IC50 |
| --- | --- |
| CNCCn1cc(-c2cnc(Nc3cc(N)nc(C(F)F)n3)cc2OC2COC2)cn1 | > 40 nM |
| CCNc1cc(Nc2cc(N)nc(C(F)F)n2)ncc1C(=O)NC1CC2(CNC2)C1 | > 40 nM |
| CC(Oc1cc(Nc2cc(N)nc(C(F)F)n2)ncc1-c1cnn(C)c1)C(F)F (centres unmarked) | < 10 nM |
| Cn1cc(-c2cnc(Nc3cc(N)nc(C(F)F)n3)cc2OCC2CC(O)C2)cn1 (centres unmarked) | 10 to 40 nM |
| CCNc1cc(Nc2cc(N)nc(C(F)F)n2)ncc1C(=O)NCc1ncco1 | 10 to 40 nM |
| COc1cc(Nc2cc(N)nc(C(F)F)n2)ncc1-c1cnn(C2CCNC2)c1 (centres unmarked) | 10 to 40 nM |
| C[C@@H](CF)Nc1cc(Nc2cc(N)nc(C(F)F)n2)ncc1C(=O)NC1CC1 | < 10 nM |
| CNC(=O)c1cnc(Nc2cc(N)nc(C(F)F)n2)cc1NCC(C)C | < 10 nM |
| CNC(C)Cn1cc(-c2cnc(Nc3cc(N)nc(C(F)F)n3)cc2OC(F)F)cn1 (centres unmarked) | < 10 nM |
| [2H]C([2H])([2H])NC(=O)c1cnc(Nc2cc(N)nc(C(F)F)n2)cc1NC | 10 to 40 nM |
| CC(C)(N)Cn1cc(-c2cnc(Nc3cc(N)nc(C(F)F)n3)cc2OC2CC2)cn1 | < 10 nM |

----------
This section presents molecules with their documented IC50 values.
# STUDY_SYSTEM: c-kit autophosphorylation (Phospho c-Kit Tyr721) in HMC 1.1 (exon 11/13) cells, V654A (Homo sapiens, UniProt P10721, V560G/V654A)
# Construct: endogenous in cells
# MEASUREMENT_DESCRIPTION: pKIT Meso Scale Discovery (MSD) assay, inhibition of autophosphorylation of KIT, HMC1.1_V654A
# MEASUREMENT_CONTEXT: Table 1, cell line not named for Table 1, b1056 names pKIT HMC1.1_V654A, read-out: Code (IC50 for inhibition of autophosphorylation of KIT, pKIT MSD assay)

| MOLECULE | IC50 |
| --- | --- |
| CNC(=O)c1cnc(Nc2cc(N)nc(CF)n2)cc1NC(C)CF (single isomer, unassigned) [Compound 27] | 10 to 40 nM |
| CCNc1cc(Nc2cc(N)nc([C@@H](C)F)n2)ncc1C(=O)NC | > 40 nM |
| Nc1cc(Nc2cc(OC3CC3)c(-c3cnn([C@@H]4CCNC4)c3)cn2)nc(C(F)F)n1 (single isomer, unassigned) | < 10 nM |
| CNC(=O)c1cnc(Nc2cc(N)nc(C(F)F)n2)cc1NCC(F)(F)F | < 10 nM |
| Nc1cc(Nc2cc(NC3CC3)c(C(=O)NCC3CC3)cn2)nc(C(F)F)n1 | 10 to 40 nM |
| CNC(=O)c1cnc(Nc2cc(N)nc(C(F)F)n2)cc1NC1CCC1 | < 10 nM |
| CC(C)(O)Cn1cc(-c2cnc(Nc3cc(N)nc(C(F)F)n3)cc2OC2CC2)cn1 | < 10 nM |
| Cn1cc(-c2cnc(Nc3cc(N)nc(C(F)F)n3)cc2OC2COC2)cn1 | < 10 nM |
